Biological target: 5-LO (Homo sapiens, UniProt P09917)
Construct: heparinised human blood, prior to challenge with the calcium ionophore A23187; endogenous in cells
Sequence (P09917 1-674): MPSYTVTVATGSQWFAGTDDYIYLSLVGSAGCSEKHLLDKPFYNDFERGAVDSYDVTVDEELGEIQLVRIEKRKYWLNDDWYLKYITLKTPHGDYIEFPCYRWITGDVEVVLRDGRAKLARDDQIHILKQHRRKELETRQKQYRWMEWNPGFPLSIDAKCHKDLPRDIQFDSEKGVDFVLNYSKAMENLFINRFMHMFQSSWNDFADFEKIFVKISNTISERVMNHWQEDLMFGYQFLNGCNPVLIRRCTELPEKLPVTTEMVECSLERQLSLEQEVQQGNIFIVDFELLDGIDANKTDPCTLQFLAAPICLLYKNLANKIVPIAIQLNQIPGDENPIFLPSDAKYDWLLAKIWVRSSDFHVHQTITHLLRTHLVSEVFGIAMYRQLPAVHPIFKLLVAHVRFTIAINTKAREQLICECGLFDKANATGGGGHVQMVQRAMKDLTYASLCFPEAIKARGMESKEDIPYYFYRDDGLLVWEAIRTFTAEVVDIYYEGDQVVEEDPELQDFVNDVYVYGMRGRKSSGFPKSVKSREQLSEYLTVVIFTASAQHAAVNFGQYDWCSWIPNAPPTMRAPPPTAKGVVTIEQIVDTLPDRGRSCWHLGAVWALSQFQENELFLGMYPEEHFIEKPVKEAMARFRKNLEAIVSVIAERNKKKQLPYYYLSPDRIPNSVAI
Test: test b) heparinised human blood challenged with A23187, LTB4 radioimmunoassay
Protocol: b) An in vitro assay system involving incubating a test compound with heparinised human blood, prior to challenge with the calcium ionophore A23187 and then indirectly measuring the inhibitory effects on 5-LO by assaying the amount of LTB4 using the specific radioimmunoassays described by Carey and Forder (F. Carey and R. A. Forder, Prostaglandins, Leukotrienes Med., 1986, 22, 57; Prostaglandins, 1984, 28, 666; Brit. […]
Reported IC50 is given for each of the following molecules.
Numbers only here, please. The scale is nM.

Molecule: COC1(c2cc(F)cc(Sc3ccc4c(c3)OCC(=S)N4C)c2)CCOCC1 [Example 7]
Tested system: 5-LO (Homo sapiens, UniProt P09917)
IC50 [nM]: 300

Q) Dear colleague, I am looking for the recorded IC50 of the following molecule: COC1(c2cc(F)cc(OCc3ccc4c(c3)OCC(=O)N4C)c2)CCOCC1 [Example 1]
A) 40

Q) Dear colleague, I am looking for the recorded IC50 of the following molecule: COC1(c2cc(F)cc(Sc3ccc4c(c3)OCC(=O)N4C)c2)CCOCC1 [Example 5]
A) 50

Q) Dear colleague, I am looking for the recorded IC50 of the following molecule: COC1(c2cc(F)cc(OCc3ccc4c(c3)OC(C)(C)C(=O)N4C)c2)CCOCC1 [Example 2]
A) 50

All figures here come from patent US5217969A.
